B1: CPEB3 Ribozyme (parent)
chain: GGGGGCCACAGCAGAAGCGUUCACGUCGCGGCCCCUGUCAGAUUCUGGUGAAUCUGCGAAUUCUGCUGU

# Variants of: B1
# assay overview: self-cleavage, relative activity (ratio to wild type); higher = more cleavage; co-transcriptional
measured parameter: self-cleavage
Answer as a number with no unit attached.

mutant label: U26A A42G
quantitative readout: 0.72
//
mutant label: U53G U62A
quantitative readout: 0.688
//
mutant label: C35U G47A
quantitative readout: 0.918

IN: Item under review: G3C U36A . Reported self-cleavage?
OUT: 0.0318

IN: Fill in the blank: the reported self-cleavage of C32U U55A is ____.
OUT: 0.989

IN: Can you share its self-cleavage? I mean this variant: G14U A16C
OUT: 0.123

IN: So what's the measured self-cleavage for this one? C6G C27U
OUT: 0.0872
